# Assay Explanation: xn = mol fraction of the nth substance listed, in the solute-free solvent
# Measurement Setup: 293.15 K; x2 = 0.6
Readout Type: solubility (g/100 g solution)

// below: answered compounds
{"Compound": "Cl.NC1CCSC1=O (centres undefined) + CO + CC#N", "solubility (g/100 g solution)": 4.89}
{"Compound": "CC(C)C(=O)Nc1ccc([N+](=O)[O-])c(C(F)(F)F)c1 + C1CCOC1 + CC(C)O", "solubility (g/100 g solution)": 55.8}
{"Compound": "CC(C)C(=O)Nc1ccc([N+](=O)[O-])c(C(F)(F)F)c1 + CCOC(C)=O + CC(C)O", "solubility (g/100 g solution)": 44.7}

Let's switch to this compound now.
solubility (g/100 g solution) for CC(C)C(=O)Nc1ccc([N+](=O)[O-])c(C(F)(F)F)c1 + CC(C)=O + CC(C)O is 54.6

====

Below, each entry is listed with its recorded solubility (g/100 g solution).
# Assay Explanation: xn = mol fraction of the nth substance listed, in the solute-free solvent
# Measurement Setup: 298.15 K; x2 = 0.2812
API note: the answer field is a bare number with no unit suffix.

{"Compound": "O=C1C=CC(=O)N1c1ccccc1Br + CCO + O", "solubility (g/100 g solution)": 7.51}
{"Compound": "O=c1cc(CBr)c2ccccc2[nH]1 + CCO + O", "solubility (g/100 g solution)": 0.112}
{"Compound": "Nc1cc(-c2ccncc2)c[nH]c1=O + CCO + O", "solubility (g/100 g solution)": 0.00956}
{"Compound": "CC(C)C(=O)Nc1ccc([N+](=O)[O-])c(C(F)(F)F)c1 + CCO + O", "solubility (g/100 g solution)": 1.93}

Shifting focus to the compound that follows.
Measured solubility (g/100 g solution) of Nc1ncc(Br)nc1Br + CCO + O : 0.397

====

# Assay Explanation: xn = mol fraction of the nth substance listed, in the solute-free solvent
# Measurement Setup: 313.15 K; x2 = 0.4772
Readout Type: solubility (g/100 g solution)
Respond with the number and no other words.

{"Compound": "Nc1cc(-c2ccncc2)c[nH]c1=O + CCO + O", "solubility (g/100 g solution)": 0.0219}
{"Compound": "O=c1cc(CBr)c2ccccc2[nH]1 + CCO + O", "solubility (g/100 g solution)": 0.196}
{"Compound": "O=C1C=CC(=O)N1c1ccccc1Br + CCO + O", "solubility (g/100 g solution)": 15.7}
{"Compound": "CC(C)C(=O)Nc1ccc([N+](=O)[O-])c(C(F)(F)F)c1 + CCO + O", "solubility (g/100 g solution)": 14.7}

Please turn your attention to the following entry.
Quick note, solubility (g/100 g solution) for Nc1ncc(Br)nc1Br + CCO + O landed at 0.776

====

# Assay Explanation: xn = mol fraction of the nth substance listed, in the solute-free solvent
# Measurement Setup: 288.15 K; x2 = 0.08908
Readout Type: solubility (g/100 g solution)

// solved cases for solubility (g/100 g solution) follow
{"Compound": "Nc1cc(-c2ccncc2)c[nH]c1=O + CCO + O", "Test Value": 0.00246}
{"Compound": "Nc1ncc(Br)nc1Br + CCO + O", "Test Value": 0.0889}
{"Compound": "O=c1cc(CBr)c2ccccc2[nH]1 + CCO + O", "Test Value": 0.037}
{"Compound": "O=C1C=CC(=O)N1c1ccccc1Br + CCO + O", "Test Value": 1.54}

The compound identified as CC(C)C(=O)Nc1ccc([N+](=O)[O-])c(C(F)(F)F)c1 + CCO + O registered its solubility (g/100 g solution) at 0.0305

====

# Assay Explanation: xn = mol fraction of the nth substance listed, in the solute-free solvent
# Measurement Setup: 288.15 K; x2 = 0.7297
Readout Type: solubility (g/100 g solution)

What the record says about O=C1C=CC(=O)N1c1ccccc1Br + CC(C)O + O : solubility (g/100 g solution) is 5.43

Measured solubility (g/100 g solution) of O=c1cc(CBr)c2ccccc2[nH]1 + CC(C)O + O : 0.0847

The compound listed as Nc1ncc(Br)nc1Br + CC(C)O + O has a reported solubility (g/100 g solution) of 0.277

Memo: CC(C)C(=O)Nc1ccc([N+](=O)[O-])c(C(F)(F)F)c1 + CC(C)O + O , reported solubility (g/100 g solution): 21.6

What the record says about O=c1cc(CBr)c2ccccc2[nH]1 + CCCO + O : solubility (g/100 g solution) is 0.124

====

# reported solubility (g/100 g solution); entries follow
# Assay Explanation: xn = mol fraction of the nth substance listed, in the solute-free solvent
# Measurement Setup: 293.15 K; x2 = 0.1
Form field (numeric): enter value without unit.

Solved entries (count: 3):
{"Compound": "Cl.NC1CCSC1=O (centres undefined) + CO + CC#N", "Test Value": 0.155}
{"Compound": "CC(C)C(=O)Nc1ccc([N+](=O)[O-])c(C(F)(F)F)c1 + CC(C)=O + CC(C)O", "Test Value": 33.4}
{"Compound": "CC(C)C(=O)Nc1ccc([N+](=O)[O-])c(C(F)(F)F)c1 + CCOC(C)=O + CC(C)O", "Test Value": 30.2}

Then there is this compound:
Entry under test: CC(C)C(=O)Nc1ccc([N+](=O)[O-])c(C(F)(F)F)c1 + C1CCOC1 + CC(C)O . Its solubility (g/100 g solution) was 30.4

====

# Assay Explanation: xn = mol fraction of the nth substance listed, in the solute-free solvent
# Measurement Setup: 278.15 K; x2 = 0.1436
Tick label 1 if solubility (g/100 g solution) is 0.08 or greater. Tick label 0 if solubility (g/100 g solution) is less than 0.08.

Solved entries (count: 3):
{"Compound": "Nc1cc(-c2ccncc2)c[nH]c1=O + CCO + O", "Class Label": "label 0"}
{"Compound": "O=C1C=CC(=O)N1c1ccccc1Br + CCO + O", "Class Label": "label 1"}
{"Compound": "O=c1cc(CBr)c2ccccc2[nH]1 + CCO + O", "Class Label": "label 0"}

QUERY: Form field: solubility (g/100 g solution) at least 0.08? Entry: CC(C)C(=O)Nc1ccc([N+](=O)[O-])c(C(F)(F)F)c1 + CCO + O
RESULT: label 0

QUERY: Answer whether solubility (g/100 g solution) of Nc1ncc(Br)nc1Br + CCO + O is greater than or equal to 0.08.
RESULT: label 1

====

Property: solubility (g/100 g solution); scope: individual molecules
# Assay Explanation: xn = mol fraction of the nth substance listed, in the solute-free solvent
# Measurement Setup: 308.15 K; x2 = 0.2307
Reply with the value as a number alone.

// below: answered molecules
{"Molecule": "O=c1cc(CBr)c2ccccc2[nH]1 + CCCO + O", "solubility (g/100 g solution)": 0.164}
{"Molecule": "Nc1ncc(Br)nc1Br + CC(C)O + O", "solubility (g/100 g solution)": 0.304}
{"Molecule": "O=c1cc(CBr)c2ccccc2[nH]1 + CC(C)O + O", "solubility (g/100 g solution)": 0.131}

Per the records, this molecule ( CC(C)C(=O)Nc1ccc([N+](=O)[O-])c(C(F)(F)F)c1 + CC(C)O + O ) has solubility (g/100 g solution) equal to 3.99

Form: molecule = O=C1C=CC(=O)N1c1ccccc1Br + CC(C)O + O ; solubility (g/100 g solution) = 8.51

====

# Assay Explanation: xn = mol fraction of the nth substance listed, in the solute-free solvent
# Measurement Setup: 318.15 K; x2 = 0.2068
Documented solubility (g/100 g solution) across a set of compounds

{"Compound": "O=c1cc(CBr)c2ccccc2[nH]1 + CCO + O", "Readout Type": "solubility (g/100 g solution)", "Test Value": 0.172}

solubility (g/100 g solution) in this record for O=C1C=CC(=O)N1c1ccccc1Br + CCO + O : 11.5

Value of measured solubility (g/100 g solution) for the entry Nc1ncc(Br)nc1Br + CCO + O : 0.479

solubility (g/100 g solution) reported for this compound Nc1cc(-c2ccncc2)c[nH]c1=O + CCO + O : 0.0116

solubility (g/100 g solution) measured on CC(C)C(=O)Nc1ccc([N+](=O)[O-])c(C(F)(F)F)c1 + CCO + O = 1.54

====

# Assay Explanation: xn = mol fraction of the nth substance listed, in the solute-free solvent
# Measurement Setup: 313.15 K; x2 = 0.08908
Readout Type: solubility (g/100 g solution)
Answer using only a numeral; do not append any unit.

Check out these entries, answers already filled in.
{"Compound": "O=C1C=CC(=O)N1c1ccccc1Br + CCO + O", "solubility (g/100 g solution)": 4.39}
{"Compound": "Nc1cc(-c2ccncc2)c[nH]c1=O + CCO + O", "solubility (g/100 g solution)": 0.00498}
{"Compound": "Nc1ncc(Br)nc1Br + CCO + O", "solubility (g/100 g solution)": 0.158}
{"Compound": "O=c1cc(CBr)c2ccccc2[nH]1 + CCO + O", "solubility (g/100 g solution)": 0.104}

We next turn to a different compound, shown below.
The recorded solubility (g/100 g solution) for entry CC(C)C(=O)Nc1ccc([N+](=O)[O-])c(C(F)(F)F)c1 + CCO + O equals 0.0976

Ref: the CheMixHub drug solubility set
